System: HeLa cell line
Assay Procedure: Dye uptake flow cytometry MDR assay
Format: cell-based, human
Setup Conditions: HeLa, dye uptake, average of three representative experiments (Table 6)
# reported D-value, Verapamil; entries follow
// keep it numeric: no unit symbol after the value

Request: Suppose we examine the compound CCN1C(=CC=Cc2oc3ccccc3[n+]2CC)Oc2ccccc21.[I-] [DiOC2(3), 3,3′-diethyloxacarbocyanine iodide] ; what D-value, Verapamil value has been reported?
Result: 0

Request: Suppose we examine the compound CC(=O)OCOC(=O)CN(CC(=O)OCOC(C)=O)Cc1cc2c(cc1OC(C)=O)Oc1cc(OC(C)=O)c(CN(CC(=O)OCOC(C)=O)CC(=O)OCOC(C)=O)cc1C21OC(=O)c2ccccc21 ; what D-value, Verapamil value has been reported?
Result: 0.17

Request: Suppose we examine the compound CC(=O)Oc1ccc2c(c1)Oc1cc(OC(C)=O)ccc1C21OC(=O)c2cc(CCl)ccc21 [CMFDA, chloromethylfluorescein diacetate] ; what D-value, Verapamil value has been reported?
Result: 0

Request: Suppose we examine the compound CC(=O)OCOC(=O)CN(CC(=O)OCOC(C)=O)c1ccccc1OCCOc1cc(-c2c3ccc(=O)cc-3oc3cc(OCOC(C)=O)ccc23)ccc1N(CC(=O)OCOC(C)=O)CC(=O)OCOC(C)=O ; what D-value, Verapamil value has been reported?
Result: 0.10

Request: Suppose we examine the compound C=Cc1c(C)c2cc3nc(c4c5[nH]c(cc6nc(cc1[nH]2)C(C)=C6CC)c(C)c5C(=O)[C@@H]4C(=O)OC)[C@@H](CCC(=O)O)[C@@H]3C [Pheophorbide A, pheophorbide A] ; what D-value, Verapamil value has been reported?
Result: 0

Cited source for all entries: patent US9097673B2
